- measured-target: Neurogenic locus notch homolog protein 2 (Homo sapiens)
- assay-overview: Notch2 binders on small-molecule microarrays, primary screen, biochemical, small-molecule microarray, 635 nm fluorescence, stem cell growth factors (AID 1073)
- stated-conditions: Notch2 binding, higher = more signal
quantity: composite z-score
Answers are plain numbers.

Some molecules with recorded composite z-score:
[
  {
    "molecule": "C=CCNC(=O)[C@H]1[C@@H]2C(=O)O[C@@H](c3ccccc3)[C@@H](c3ccccc3)N2[C@@H](c2ccc(OCCO)cc2)[C@]12C(=O)N(C(=O)OCCOC)c1ccc(C#CCC(C(=O)OC)C(=O)OC)cc12",
    "measured-target": "Neurogenic locus notch homolog protein 2 (Homo sapiens)",
    "composite z-score": 0.881
  },
  {
    "molecule": "O=C1O[C@@H](c2ccccc2)[C@@H](c2ccccc2)N2[C@@H](c3ccccc3OCCO)[C@]3(C(=O)Nc4ccc(C#CC5(O)CCCCCC5)cc43)[C@@H](C(=O)N3CCCCCCC3)[C@H]12",
    "measured-target": "Neurogenic locus notch homolog protein 2 (Homo sapiens)",
    "composite z-score": 1.89
  },
  {
    "molecule": "C[C@]1(C(=O)O)c2ccccc2C(=O)N(Cc2cc(C(F)(F)F)cc(C(F)(F)F)c2)[C@H]1c1ccc(CO)cc1",
    "measured-target": "Neurogenic locus notch homolog protein 2 (Homo sapiens)",
    "composite z-score": -0.0211
  },
  {
    "molecule": "COc1cc2c(cc1O)C(C)N(Cc1sc3ccccc3c1Cl)CC2 (configuration not stated)",
    "measured-target": "Neurogenic locus notch homolog protein 2 (Homo sapiens)",
    "composite z-score": -0.246
  },
  {
    "molecule": "[N-]=[N+]=Nc1ccccc1C[C@]1(C(=O)N2CCCCC2)N=C(c2ccc(OCCCO)cc2)O[C@H]1c1ccccc1",
    "measured-target": "Neurogenic locus notch homolog protein 2 (Homo sapiens)",
    "composite z-score": 1.36
  }
]

Below are 2 molecules. Give each one its composite z-score.
1. O=C1NC(=O)C2C1C=CC(C(O)c1ccc(F)cc1)N2Nc1ccc(Cl)cc1Cl (configuration not stated)
2. C=C(C(=O)CC[C@@H](OC(=O)c1ccccc1-c1ccccc1C(=O)O)c1cccc(OCCO)c1)C(C)C

Resp:
0.916
0.234

====

- Test system: XIP peptide (Xip251-270) binding
- assay-overview: small-molecule binders of XIP peptide, primary screen, biochemical, small-molecule microarray, fluorescence 635/667 nm, 0.1 µg/mL protein (AID 1182)
- stated-conditions: fluorescent protein binding, 635 nm, higher = more signal, called active from +8 up or from −8 down
Rule: composite z-score of 0.4 or more gives T; anything lower gives F.

Req: Could you tell me if the measured composite z-score of O=C1O[C@H](c2ccccc2)[C@H](c2ccccc2)N2[C@H]1[C@@H](C(=O)N1CCCCCCC1)[C@]1(C(=O)Nc3ccc(C#CCCO)cc31)[C@H]2c1ccc(O)cc1 reaches 0.4 or more?
Resp: T

Req: Check if composite z-score >= 0.4 (inclusive). Item: CO[C@H]1O[C@H](CO)[C@@H](OC(=O)CCc2ccccc2)[C@@H]2OC(=O)[C@@H](Cc3ccc4ccccc4c3)C/C=C/C[C@H](Cc3ccc4ccccc4c3)C(=O)O[C@@H]12
Resp: F

Req: Could you please find out whether CN1C(=O)C2C=CC(C(O)c3cccs3)N(N(c3ccccc3)c3ccccc3)C2C1=O (stereo not given) has composite z-score that meets 0.4 or exceeds it?
Resp: T

Req: Evaluate CCCCC(=C=CC[C@H](O)c1cccc(OCCO)c1)C[C@H](O)c1cc(Cl)cc(Cl)c1O : composite z-score at minimum 0.4?
Resp: T

Req: Quick check, composite z-score >= 0.4? C=CC[C@H](OC(=O)Nc1ccc(SC)cc1)c1ccc(O)c(F)c1
Resp: T

Req: Reported composite z-score reaches at least 0.4 for N#Cc1ccc(NN2C(C(O)c3ccc(B(O)O)cc3)C=CC3CN(c4ccccc4)C(=O)C32)cc1 (stereo not given) ?
Resp: F

Req: Test whether the compound [N-]=[N+]=NCc1ccccc1C[C@]1(C(=O)N2CCCCC2)COC(c2ccc(OCCCO)cc2)=N1 records composite z-score of 0.4 or higher.
Resp: F

Req: Determine whether measured composite z-score meets or exceeds 0.4 for COC(=O)[C@@]1(Cc2ccccc2)[C@H]2c3cc(C(=O)N(C)C)n(Cc4nc5ccccc5[nH]4)c3C[C@H]2CN1C(=O)c1ccccc1
Resp: T

Req: Assess whether reported composite z-score for CN1C(=O)C2C=CC(C(O)c3ccc([N+](=O)[O-])cc3)N(Nc3ccccc3)C2C1=O (stereo not given) sits at 0.4 or higher.
Resp: T

Req: Does the compound CN1C(=O)C2C=CC(C(O)COCc3ccccc3)N(Nc3ccc([N+](=O)[O-])cc3[N+](=O)[O-])C2C1=O (stereo not given) have recorded composite z-score that is 0.4 or more?
Resp: T

Req: Check this compound for composite z-score at or above 0.4: CCOC(=O)C[C@H]1[C@H](OC(=O)c2cc3ccccc3oc2=O)[C@@H](NC(=O)c2ccc(-c3ccccc3)cc2)c2cc(OCCCO)ccc2N1C(=O)Cc1ccc(OC)cc1
Resp: F

Req: Hello, I need to know if O=C1C2C=CC(C(O)C3CCCCC3)N(Nc3ccccc3F)C2C(=O)N1c1ccccc1 (stereo not given) has measured composite z-score not below 0.4. Thanks!
Resp: F

Req: Exam item: decide whether the reported composite z-score for CCOC(=O)C[C@H]1[C@H](OC(=O)c2ccc(-c3ccccc3)cc2)[C@@H](NC(=O)c2ccc(-c3ccccc3)cc2)c2cc(OCCCO)ccc2N1C(=O)c1ccccc1 is at least 0.4.
Resp: T

Req: Determine whether this compound has composite z-score no lower than 0.4: Cc1ccc(S[C@]2(C(=O)NCc3ccccc3)CC(=O)N(Cc3ccccc3Cl)[C@@H]2c2ccc(CO)cc2)cc1
Resp: T

Req: Is reported composite z-score greater than or equal to 0.4 here: Cc1ccc(N2C(=O)c3ccccc3[C@@H](C(=O)NCCN3CCOCC3)[C@@H]2c2ccc(CO)cc2)nc1
Resp: F

====

- measured-target: Fibroblast growth factor 2 (Homo sapiens) (UniProt P09038)
- Sequence (P09038 whole entry, looked up): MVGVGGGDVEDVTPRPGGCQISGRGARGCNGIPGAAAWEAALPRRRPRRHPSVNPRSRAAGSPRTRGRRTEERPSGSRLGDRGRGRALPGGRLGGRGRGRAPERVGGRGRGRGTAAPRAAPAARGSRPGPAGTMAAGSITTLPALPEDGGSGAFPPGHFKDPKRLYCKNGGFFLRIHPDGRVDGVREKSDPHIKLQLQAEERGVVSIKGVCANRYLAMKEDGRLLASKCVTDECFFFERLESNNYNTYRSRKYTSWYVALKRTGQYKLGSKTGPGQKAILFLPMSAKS
- assay-overview: FGF2 binders on small-molecule microarrays, primary screen, biochemical, small-molecule microarray, 635/667 nm fluorescence (AID 1133)
- stated-conditions: small-molecule microarray binding, FGF2, fluorescence 635/667; higher = more signal
quantity: composite z-score

[
  {
    "molecule": "COC(=O)[C@@]1(Cc2ccccc2)[C@H]2c3cc(C(=O)N(C)C)n(Cc4ccc(Cl)c(C(F)(F)F)c4)c3C[C@H]2CN1C(=O)c1ccccc1",
    "reported-result": 0.33
  },
  {
    "molecule": "CCOC(=O)C[C@H]1[C@H](OC(=O)c2ccc(-c3ccccc3)cc2)[C@@H](NC(=O)c2ccc(-c3ccccc3)cc2)c2cc(OCCCO)ccc2N1C(=O)c1ccccc1",
    "reported-result": 0.64
  },
  {
    "molecule": "COc1ccc(-c2cc3c(c(CCc4ccccc4)n2)[Si](C(C)C)(C(C)C)O[C@H]3c2ccccc2)cn1",
    "reported-result": 0.0958
  }
]

Req: Dear colleague, I am looking for the recorded composite z-score of the following molecule: COc1ccc(NN2C(C(O)c3ccc(F)cc3)C=CC3C(=O)N(C4CCCCC4)C(=O)C32)cc1 (centres undefined)
Resp: 0.314

====

Answer each item with its documented composite z-score.
- measured-target: Left-right determination factor 2 (Homo sapiens)
- assay-overview: LEFTY2 binders on small-molecule microarrays, primary screen, biochemical, small-molecule microarray, 635 nm fluorescence scan (AID 1110)
- stated-conditions: LEFTY2 binding, higher = more signal

Example entries and their recorded answers appear below.
[
  {
    "molecule": "C=C[C@H](C)[C@@H](OC(=O)Nc1ccc(SC)cc1)c1ccc(OCCO)cc1",
    "measured-target": "Left-right determination factor 2 (Homo sapiens)",
    "composite z-score": -0.396
  },
  {
    "molecule": "O=C1NC(=O)C2C1C=CC(C(O)C(c1ccccc1)c1ccccc1)N2Nc1ccccn1 (stereo not drawn)",
    "measured-target": "Left-right determination factor 2 (Homo sapiens)",
    "composite z-score": 0.702
  },
  {
    "molecule": "COc1ccc(NN2C(C(O)c3ccccc3)C=CC3C(=O)N(C4CCCCC4)C(=O)C32)cc1 (stereo not drawn)",
    "measured-target": "Left-right determination factor 2 (Homo sapiens)",
    "composite z-score": 0.395
  },
  {
    "molecule": "COC(=O)[C@@]1(Cc2ccc(F)cc2)[C@H]2c3cc(C(=O)N(C)C)n(Cc4ccsc4Br)c3C[C@H]2CN1C(=O)c1ccccc1",
    "measured-target": "Left-right determination factor 2 (Homo sapiens)",
    "composite z-score": 0.648
  },
  {
    "molecule": "C=CC[C@]1(C(N)=O)N=C(c2ccc(OCCCO)cc2)O[C@H]1c1ccccc1N=[N+]=[N-]",
    "measured-target": "Left-right determination factor 2 (Homo sapiens)",
    "composite z-score": 0.0562
  }
]

Quick one: give me composite z-score for each item below, same order please.
1. CO[C@H]1O[C@H](CO)[C@@H](OC(=O)CCc2ccccc2)[C@@H]2OC(=O)[C@@H](Cc3ccc4ccccc4c3)C/C=C/C[C@H](Cc3ccc4ccccc4c3)C(=O)O[C@@H]12
2. CN(C)CCCCCCNC(=O)[C@@H]1C[C@@H]2C(=O)N[C@@H](CCCC[N+](C)(C)C)C(=O)N2[C@@H]1c1cccc(OCCO)c1
3. COCCOC(=O)N1C(=O)[C@@]2(c3cc(C#CC4=CCCCC4)ccc31)[C@H](c1ccc(O)cc1)N1[C@H](c3ccccc3)[C@H](c3ccccc3)OC(=O)[C@H]1[C@@H]2C(=O)N1CCc2cc(OC)c(OC)cc2C1
4. C=CC[C@]1(C(=O)NCC(O)CO)N=C(c2ccc(OCCCO)cc2)O[C@H]1c1ccccc1CN=[N+]=[N-] (stereo partly drawn)
5. COCCOC(=O)N1C(=O)[C@@]2(c3cc(C#CCNC(N)=O)ccc31)[C@H](c1ccccc1OCCO)N1[C@H](c3ccccc3)[C@H](c3ccccc3)OC(=O)[C@H]1[C@@H]2C(=O)N1CCCCCCC1
6. O=C(CS)NCCCCCCNC(=O)[C@H]1C[C@H]2C(=O)NCC(=O)N2[C@H]1c1cccc(OCCO)c1

Resp:
[-0.817, -1.28, -0.231, -0.696, 0.621, 0.281]

Hi team, please reply with composite z-score for each item in this list.
1. CCCCC=C[C@@H](NC(=O)C(C)(C)C)c1ccccc1
2. C=C(COC)C(=O)CC[C@H](OC(C)=O)c1ccc(CO)o1
3. C=C(C(=O)CC[C@@H](OC(=O)c1cccnc1)c1cccc(OCCO)c1)C(C)C

Resp:
1. 0.466
2. 0.451
3. 0.415

Dear colleague, could you please provide composite z-score for the molecules listed below?
1. CCN1C(=O)C2CC(=O)C3C(CN(S(=O)(=O)c4ccc(C)cc4)C3c3ccc(C)cc3)C2C1=O (stereo not drawn)
2. CC[C@@H](O[Si](C#C[Si](C(C)C)(C(C)C)C(C)C)(C(C)C)C(C)C)c1cn(Cc2cccc(Cl)c2)nn1
3. O=C1OCC=C[C@H]2OC34C=CCN(Cn5nnc6ccccc65)C(=O)[C@H]3N(CCO)C(=O)[C@@H]4[C@@H]12 (stereo partly drawn)
4. C=CC[C@@]1(C(=O)NCCCOC)N=C(c2ccc(OCCCO)cc2)O[C@@H]1c1ccccc1CN=[N+]=[N-]
5. CO[C@H]1O[C@H](CO)[C@@H](OC(=O)Nc2cccc(F)c2)[C@H](OC(=O)Nc2ccc3c(c2)OCO3)[C@@H]1OC(=O)Nc1ccc2c(c1)OCO2
6. COC(=O)C(CC#Cc1ccc2c(c1)[C@]1(C(=O)N2)[C@H](C(=O)N2CCCCCCC2)[C@H]2C(=O)O[C@H](c3ccccc3)[C@H](c3ccccc3)N2[C@@H]1c1ccc(OCCO)cc1)C(=O)OC
7. O=C1O[C@@H](c2ccccc2)[C@@H](c2ccccc2)N2[C@@H](c3ccccc3OCCO)[C@]3(C(=O)Nc4ccc(C#CC5(O)CCCCCC5)cc43)[C@@H](C(=O)N3CCCCCCC3)[C@H]12
8. C=C(COC)/C(=C/C[C@@H](OC(=O)c1ccncc1)c1ccccc1OCCO)c1cnc2ccccc2c1

Resp:
0.015
0.374
-1.41
0.266
-0.0699
1.76
1.87
1.14

Below are some molecules; for each one, tell me its composite z-score.
1. [N-]=[N+]=Nc1ccccc1C[C@@]1(C(=O)NCc2ccccc2)N=C(c2ccc(OCCCO)cc2)O[C@@H]1c1ccccc1
2. C=C(CCCC)/C(=C/C[C@@H](OC(C)=O)c1cccc(OCCO)c1)c1cc(C(=O)OC)ccc1OC
3. COC(=O)[C@@]1(Cc2ccc(F)cc2)[C@H]2c3cc(C(=O)N(C)C)n(Cc4ccc(C(F)(F)F)nc4)c3C[C@H]2CN1C(=O)c1ccccc1

Resp:
1. 0.262
2. -0.227
3. 0.22
